Procedure Text: ACEA_ER_AUC_viability: ACEA Biosciences xCELLigence Real-Time Cell Analysis on Estrogen Receptor Agonism for Viability (AID 2283782);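 also: continuous compound exposure with impedance area under curve over 80 h; hit means loss of impedance signal meaning reduced cell growth or viability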
Inconclusive results are not listed. Active and inactive are the calls of the source. The calls were made as follows: active = hit-call score of the fitted dose curve at least 0.9, where 1 is the maximum; inconclusive = response in the unintended direction; inactive = score below 0.9.
Use one of these outcomes when replying: YES for active, NO for inactive

Task: Field: outcome | Entry: O=S1OCC2C(CO1)C1(Cl)C(Cl)=C(Cl)C2(Cl)C1(Cl)Cl (configuration not stated)
Result: YES

Task: Field: outcome | Entry: `O=C(O)CCCOc1ccc(Cl)cc1Cl`
Result: NO

Task: Field: outcome | Entry: CC(C)(C)C(O)/C(=C\c1ccc(Cl)cc1Cl)n1cncn1 (configuration not stated)
Result: YES

Task: Field: outcome | Entry: `CN1CSC(=S)N(C)C1`
Result: YES

Task: Field: outcome | Entry: CC(C)(C)C(O)C(Oc1ccc(Cl)cc1)n1cncn1 (configuration not stated)
Result: NO

Task: Field: outcome | Entry: `Oc1ccc(Cl)cc1Cc1ccccc1`
Result: YES

Task: Field: outcome | Entry: CCC(C)Nc1c([N+](=O)[O-])cc(C(C)(C)C)cc1[N+](=O)[O-] (configuration not stated)
Result: NO

###

Procedure Text: ATG_RORE_CIS: Attagene CIS-FACTORIAL HepG2 Assay for human RAR-related Orphan Receptor Element (RORE) (AID 2282959)
Measurement Conditions: HepG2 Attagene cis-factorial RORE reporter, mRNA; actives raise or lower the signal
Calls of active or inactive are those of the source. Rule for the calls: active = hit-call score of the fitted dose curve at least 0.9, where 1 is the maximum; inactive = score below 0.9.
Use one of these outcomes when replying: Y (active), N (inactive)

Task: Field: outcome | Entry: `CNC(=O)CSP(=S)(OC)OC`
Result: N

Task: Field: outcome | Entry: `Clc1ccccc1-c1nnc(-c2ccccc2Cl)nn1`
Result: N

Task: Field: outcome | Entry: `N#CN`
Result: N

Task: Field: outcome | Entry: `CNC(=O)Oc1cccc(N=CN(C)C)c1`
Result: Y

Task: Field: outcome | Entry: `CC(C)OC(=O)Nc1cccc(Cl)c1`
Result: N

Task: Field: outcome | Entry: `CCOc1nc(NC)nc(NC(=O)NS(=O)(=O)c2ccccc2C(=O)OC)n1`
Result: N

Task: Field: outcome | Entry: `Cc1cc(C)nc(NC(=O)NS(=O)(=O)c2ccccc2C(=O)OC2COC2)n1`
Result: N

Task: Field: outcome | Entry: CCC(C)Nc1c([N+](=O)[O-])cc(C(C)(C)C)cc1[N+](=O)[O-] (configuration not stated)
Result: Y

Task: Field: outcome | Entry: `CCCN(CCOc1c(Cl)cc(Cl)cc1Cl)C(=O)n1ccnc1`
Result: N

Task: Field: outcome | Entry: `O=C(O)CCCOc1ccc(Cl)cc1Cl`
Result: N

Task: Field: outcome | Entry: CC(C)(C)C(O)C(Oc1ccc(Cl)cc1)n1cncn1 (configuration not stated)
Result: N

Task: Field: outcome | Entry: `CCc1ccc(C(=O)NN(C(=O)c2cc(C)cc(C)c2)C(C)(C)C)cc1`
Result: N

###

Read-out: Tumor necrosis factor receptor 1 (TNFRSF1A), TNFRSF1A (gene 7132)
Procedure Text: LTEA_HepaRG_TNFRSF1A: Life Technologies and Expression Analysis (LTEA) Assay for Tumor necrosis factor receptor 1 (TNFRSF1A) using HepaRG (AID 2283535)
Measurement Conditions: mRNA level, 48 h; actives raise or lower the signal
Calls of active or inactive are those of the source. Rule for the calls: active = hit-call score of the fitted dose curve at least 0.9, where 1 is the maximum; inactive = score below 0.9.
Use one of these outcomes when replying: active, inactive

Task: Field: outcome | Entry: `Cc1[nH]c(=O)n(C(C)(C)C)c(=O)c1Cl`
Result: inactive

Task: Field: outcome | Entry: CC1(C)C(C=C(Cl)Cl)C1C(=O)OC(C#N)c1ccc(F)c(Oc2ccccc2)c1 (stereo unspecified)
Result: inactive

Task: Field: outcome | Entry: `N#CN`
Result: inactive

Task: Field: outcome | Entry: `CCC(C)(C)C(=O)OC1=C(c2ccc(Cl)cc2Cl)C(=O)OC12CCCCC2`
Result: inactive

Task: Field: outcome | Entry: `O=C(Nc1ccccc1)Nc1cnns1`
Result: inactive

Task: Field: outcome | Entry: `N#Cc1c(Cl)c(Cl)c(Cl)c(C#N)c1Cl`
Result: inactive

Task: Field: outcome | Entry: O=S1OCC2C(CO1)C1(Cl)C(Cl)=C(Cl)C2(Cl)C1(Cl)Cl (stereo unspecified)
Result: inactive

Task: Field: outcome | Entry: CC[C@H](C)[C@H]1O[C@]2(C=C[C@@H]1C)C[C@@H]1C[C@@H](C/C=C(\C)[C@@H](O[C@H]3C[C@H](OC)[C@@H](O[C@H]4C[C@H](OC)[C@@H](O)[C@H](C)O4)[C@H](C)O3)[C@@H](C)/C=C/C=C3\CO[C@@H]4[C@H](O)C(C)=C[C@@H](C(=O)O1)[C@]34O)O2 (tested in a mixture with another compound)
Result: active

Task: Field: outcome | Entry: CC1(c2ccc(Oc3ccccc3)cc2)OC(=O)N(Nc2ccccc2)C1=O (stereo unspecified)
Result: inactive

Task: Field: outcome | Entry: `Oc1ccc(Cl)cc1Cc1ccccc1`
Result: inactive

Task: Field: outcome | Entry: ClC1C(Cl)C(Cl)C(Cl)C(Cl)C1Cl (stereo unspecified)
Result: inactive
